B1: library; a variant is named by its letters at N, in order (parent)
chain: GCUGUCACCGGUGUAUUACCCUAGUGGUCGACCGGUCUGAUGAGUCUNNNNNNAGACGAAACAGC

variants of: B1; test: normalized RNA/DNA level without ligand (relative to sTRSVctl = 100) (log10 (% of sTRSVctl)); ligand: hypoxanthine (xanthine aptamer); higher = less ribozyme self-cleavage, higher mRNA level; details: HEK293T, reporter: mCherry (pCS4076), ligand present: no
Listing of recorded normalized RNA/DNA level without ligand (log10) by entry.

Here is how some variants turned out for normalized RNA/DNA level without ligand (log10).
>>> print(df.to_string())
   mutation_id  result
0       AGACUU     1.9
1       GACAAA    1.77
2       AAAAAG    1.52
3       AUCAAU    1.78
4       AAACCG    1.37
5       CCGGAG    1.36
6       AGCAGC    1.74
7       UUAGCA    1.85
8       CCCGCA    1.91
9       UACAGU    1.52

INPUT: Give the reported normalized RNA/DNA level without ligand (log10) for this variant. `UCUUAC`
OUTPUT: 1.83

INPUT: Give the reported normalized RNA/DNA level without ligand (log10) for this variant. `CUACAA`
OUTPUT: 1.79

INPUT: Give the reported normalized RNA/DNA level without ligand (log10) for this variant. `UCCCAG`
OUTPUT: 1.35

INPUT: Give the reported normalized RNA/DNA level without ligand (log10) for this variant. `CCGCUC`
OUTPUT: 1.96

INPUT: Give the reported normalized RNA/DNA level without ligand (log10) for this variant. `GAGACU`
OUTPUT: 1.83

INPUT: Give the reported normalized RNA/DNA level without ligand (log10) for this variant. `UGUGGC`
OUTPUT: 1.88

INPUT: Give the reported normalized RNA/DNA level without ligand (log10) for this variant. `CCACUU`
OUTPUT: 1.91
